# TARGET OR SYSTEM: Acetylcholinesterase (Bos taurus)
# Sequence (P23795 whole entry): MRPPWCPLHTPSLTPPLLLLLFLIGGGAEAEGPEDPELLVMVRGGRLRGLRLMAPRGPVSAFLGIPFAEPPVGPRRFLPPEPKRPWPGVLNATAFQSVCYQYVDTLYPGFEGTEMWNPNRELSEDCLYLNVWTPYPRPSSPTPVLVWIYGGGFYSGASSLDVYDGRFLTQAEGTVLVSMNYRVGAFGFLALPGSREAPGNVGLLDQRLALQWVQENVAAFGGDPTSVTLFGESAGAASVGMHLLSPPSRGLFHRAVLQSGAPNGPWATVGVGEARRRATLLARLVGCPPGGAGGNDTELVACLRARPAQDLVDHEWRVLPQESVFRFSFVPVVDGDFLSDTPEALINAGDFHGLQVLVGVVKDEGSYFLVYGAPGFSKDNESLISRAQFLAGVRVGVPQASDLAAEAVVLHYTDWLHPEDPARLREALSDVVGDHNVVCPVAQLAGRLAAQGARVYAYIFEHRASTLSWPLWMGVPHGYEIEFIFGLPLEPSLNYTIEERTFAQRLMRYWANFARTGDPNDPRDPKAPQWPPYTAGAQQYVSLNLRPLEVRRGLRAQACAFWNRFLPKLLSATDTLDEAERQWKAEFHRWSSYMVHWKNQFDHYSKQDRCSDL
Give IC50 for every item shown.
Numbers only; they are read as µM.

Ask | GET /values?readout=IC50&item= `CC(=O)N1CCCC2=C(C[C@H]3CCC[C@H](CC4=C5CCCN(C)[C@H]5C[C@@H](C)C4)N3)C[C@H](C)C[C@@H]21`
Reply | 106

Ask | GET /values?readout=IC50&item= `CC(=O)N1CCCC2=C(C[C@H]3CCC[C@H](CC4=C5CCCN(C)[C@H]5C[C@H](C)C4)N3)C[C@H](C)C[C@@H]21`
Reply | 18.5
